# test-details: activity coefficient (dimensionless); of the first substance listed, at infinite dilution; xn = mol fraction of the nth substance listed
# condition-summary: 328.15 K; Liquid; Chromatography; x1 = 0
value-type: activity coefficient

{"columns": ["molecule", "measured-result"],
 "data": [
  ["CCCO [propan-1-ol] + CCCC[N+]1(C)CCCC1.O=S(=O)([O-])C(F)(F)F", 1.14],
  ["C=CCCCC [hex-1-ene] + CCCC[N+]1(C)CCCC1.O=S(=O)([O-])C(F)(F)F", 18.1],
  ["C=CCCCCCC [oct-1-ene] + CCCC[N+]1(C)CCCC1.O=S(=O)([O-])C(F)(F)F", 34.3],
  ["C1CCCC1 [cyclopentane] + CCCC[N+]1(C)CCCC1.O=S(=O)([O-])C(F)(F)F", 14.6],
  ["C1CCOC1 [tetrahydrofuran] + CCCC[N+]1(C)CCCC1.O=S(=O)([O-])C(F)(F)F", 1.42],
  ["CCCCC [pentane] + CCCC[N+]1(C)CCCC1.O=S(=O)([O-])C(F)(F)F", 35.9]
]}

Data origin: the NIST ThermoML archive (doi:10.1016/j.fluid.2009.01.011)
